Tested on: ATP;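 note: ATP exposure 15 min at 22 °C before imaging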
Assay: switch fluorescence ratio, 500 uM ATP over buffer (Cy3 cluster intensity, sum of 5 cycles each) (fold (ratio)); higher = stronger signal-on switching upon ATP binding; sequences stand for … in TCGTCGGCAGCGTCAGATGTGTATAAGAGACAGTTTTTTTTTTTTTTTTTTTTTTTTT…TC
Conditions: aptamer strand: ATP DNA aptamer (quencher-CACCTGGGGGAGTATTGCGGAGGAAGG + anchor), 100 nM annealed; ATP concentration: 500 uM
Listing: switch fluorescence ratio of selected sequences
Attribute Measured: switch fluorescence ratio

chain_sequence=CTATCCTATA target_or_system=ATP recorded_number=0.988
chain_sequence=ATCGTGCCGT target_or_system=ATP recorded_number=1.01
chain_sequence=TTGACTTTGG target_or_system=ATP recorded_number=0.959
chain_sequence=CTATTGGTTT target_or_system=ATP recorded_number=0.975
chain_sequence=TTGAATTTGA target_or_system=ATP recorded_number=1
chain_sequence=GTATTAAAGC target_or_system=ATP recorded_number=1.02
chain_sequence=ATCTCTGAAG target_or_system=ATP recorded_number=0.995
chain_sequence=TTCTAGTAA target_or_system=ATP recorded_number=0.998
chain_sequence=GTGGAGGGGC target_or_system=ATP recorded_number=0.958
chain_sequence=TGGGGATTAG target_or_system=ATP recorded_number=1.01
chain_sequence=GGACCGGGGT target_or_system=ATP recorded_number=0.966
chain_sequence=TAATTATGCC target_or_system=ATP recorded_number=1.05
chain_sequence=GGGTAAGAG target_or_system=ATP recorded_number=1.03
chain_sequence=TAAACTTGAC target_or_system=ATP recorded_number=1.16
chain_sequence=GGTATGTTTG target_or_system=ATP recorded_number=0.96
chain_sequence=ATGGGGGCCT target_or_system=ATP recorded_number=1.02
chain_sequence=GCTGGATTGC target_or_system=ATP recorded_number=0.916
chain_sequence=AAGGGGTTCT target_or_system=ATP recorded_number=1.01
chain_sequence=TTGACAGTAA target_or_system=ATP recorded_number=1.08
chain_sequence=CGGGAAAAAG target_or_system=ATP recorded_number=1.08
chain_sequence=TGGGGCAGCG target_or_system=ATP recorded_number=1.01

---

Test system: ATP;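 note: ATP exposure 15 min at 22 °C before imaging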
Test: switch fluorescence ratio, 500 uM ATP over buffer (Cy3 cluster intensity, sum of 5 cycles each) (fold (ratio)); higher = stronger signal-on switching upon ATP binding; sequences stand for … in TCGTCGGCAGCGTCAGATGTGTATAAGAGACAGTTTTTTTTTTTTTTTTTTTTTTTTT…TC
Settings: aptamer strand: ATP DNA aptamer (quencher-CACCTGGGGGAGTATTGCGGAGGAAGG + anchor), 100 nM annealed; ATP concentration: 500 uM
Returns one of Condition met or Condition not met; Condition met when switch fluorescence ratio is >= 1.

chain_sequence=GACATTCACT group_label="Condition met"
chain_sequence=AATGGGGTTT group_label="Condition not met"
chain_sequence=GGAGACCTTT group_label="Condition met"
chain_sequence=CCGGGTAAAA group_label="Condition met"
chain_sequence=TTGAAATAGG group_label="Condition met"
chain_sequence=TACACGGTCA group_label="Condition met"
chain_sequence=TTTCTCCGGT group_label="Condition met"
chain_sequence=CCTGGAGCTC group_label="Condition met"
chain_sequence=TAGTATATTT group_label="Condition not met"
chain_sequence=GACATTTTGG group_label="Condition met"
chain_sequence=TCCTACTACG group_label="Condition met"

---

# switch fluorescence ratio listing for each entry below
Test system: ATP;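 note: ATP exposure 15 min at 22 °C before imaging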
Experiment: switch fluorescence ratio, 500 uM ATP over buffer (Cy3 cluster intensity, sum of 5 cycles each) (fold (ratio)); higher = stronger signal-on switching upon ATP binding; sequences stand for … in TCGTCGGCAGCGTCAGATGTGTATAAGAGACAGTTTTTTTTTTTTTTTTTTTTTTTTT…TC
Settings: aptamer strand: ATP DNA aptamer (quencher-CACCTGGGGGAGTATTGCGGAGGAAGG + anchor), 100 nM annealed; ATP concentration: 500 uM
Attribute Measured: switch fluorescence ratio

chain_sequence=ACAGCTGGCG attribute_measured="switch fluorescence ratio" recorded_number=1.05
chain_sequence=TGGATTGTTT attribute_measured="switch fluorescence ratio" recorded_number=0.994
chain_sequence=CGTGGTTAGT attribute_measured="switch fluorescence ratio" recorded_number=0.964
chain_sequence=TTGTTGTCTT attribute_measured="switch fluorescence ratio" recorded_number=1.02
chain_sequence=AGTGTAATGT attribute_measured="switch fluorescence ratio" recorded_number=0.975
chain_sequence=GATGGCCAGC attribute_measured="switch fluorescence ratio" recorded_number=1.01
chain_sequence=GGGTACGTTC attribute_measured="switch fluorescence ratio" recorded_number=1.01
chain_sequence=AAAAAAAAGC attribute_measured="switch fluorescence ratio" recorded_number=1.03
chain_sequence=GTTTTTGTGT attribute_measured="switch fluorescence ratio" recorded_number=0.987
chain_sequence=TTGGGGTACA attribute_measured="switch fluorescence ratio" recorded_number=0.99
chain_sequence=CCAGTGTATA attribute_measured="switch fluorescence ratio" recorded_number=1
chain_sequence=GAATTAAGCT attribute_measured="switch fluorescence ratio" recorded_number=1
chain_sequence=CCTTCGAGG attribute_measured="switch fluorescence ratio" recorded_number=1.15
chain_sequence=GGGGCTTTTA attribute_measured="switch fluorescence ratio" recorded_number=0.97
chain_sequence=ATTTTTACCT attribute_measured="switch fluorescence ratio" recorded_number=1.08
chain_sequence=GACACTTAGG attribute_measured="switch fluorescence ratio" recorded_number=1.05
chain_sequence=GAAGGTGGCT attribute_measured="switch fluorescence ratio" recorded_number=1.01
chain_sequence=GTGGGGTAGA attribute_measured="switch fluorescence ratio" recorded_number=1.05
chain_sequence=CGGTCGCCGG attribute_measured="switch fluorescence ratio" recorded_number=1.01
chain_sequence=TTTTGCGGGA attribute_measured="switch fluorescence ratio" recorded_number=1.01
chain_sequence=AGGTAGGGTA attribute_measured="switch fluorescence ratio" recorded_number=0.992
chain_sequence=TTATGAAGTT attribute_measured="switch fluorescence ratio" recorded_number=0.996
chain_sequence=GGTGGAAGAG attribute_measured="switch fluorescence ratio" recorded_number=0.982
chain_sequence=TGTTTTTGCT attribute_measured="switch fluorescence ratio" recorded_number=0.969
chain_sequence=AATTGTTTAT attribute_measured="switch fluorescence ratio" recorded_number=1
chain_sequence=GGGATGAGGT attribute_measured="switch fluorescence ratio" recorded_number=1
chain_sequence=TTCGTGTCAG attribute_measured="switch fluorescence ratio" recorded_number=0.995
chain_sequence=GGACCCGCCG attribute_measured="switch fluorescence ratio" recorded_number=1.03
chain_sequence=GGGGACCCTG attribute_measured="switch fluorescence ratio" recorded_number=0.974
chain_sequence=TTTAGGTGGC attribute_measured="switch fluorescence ratio" recorded_number=1.02
chain_sequence=GTAATAAGAT attribute_measured="switch fluorescence ratio" recorded_number=0.996
chain_sequence=TTGGGATTGG attribute_measured="switch fluorescence ratio" recorded_number=0.968
chain_sequence=AAATGTGGAA attribute_measured="switch fluorescence ratio" recorded_number=0.994
chain_sequence=TTCAAAGACT attribute_measured="switch fluorescence ratio" recorded_number=1.02
chain_sequence=TTCGTGCCAG attribute_measured="switch fluorescence ratio" recorded_number=1.01
chain_sequence=GATCTATTTT attribute_measured="switch fluorescence ratio" recorded_number=1.01
chain_sequence=GAGCAGTCGG attribute_measured="switch fluorescence ratio" recorded_number=0.982
chain_sequence=CGATGGGTAA attribute_measured="switch fluorescence ratio" recorded_number=1
chain_sequence=GGGGGTATGC attribute_measured="switch fluorescence ratio" recorded_number=1.05
chain_sequence=TAATTAGTTT attribute_measured="switch fluorescence ratio" recorded_number=0.982
chain_sequence=TTTTTTACGG attribute_measured="switch fluorescence ratio" recorded_number=1.02
chain_sequence=CAGAGCGGGG attribute_measured="switch fluorescence ratio" recorded_number=0.998
chain_sequence=TCGTAGGGGG attribute_measured="switch fluorescence ratio" recorded_number=0.979

---

# maps each entry to its switch fluorescence ratio
Test system: ATP;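 note: ATP exposure 15 min at 22 °C before imaging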
Experiment: switch fluorescence ratio, 500 uM ATP over buffer (Cy3 cluster intensity, sum of 5 cycles each) (fold (ratio)); higher = stronger signal-on switching upon ATP binding; sequences stand for … in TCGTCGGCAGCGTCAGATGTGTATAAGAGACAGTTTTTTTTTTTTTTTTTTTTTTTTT…TC
Conditions: aptamer strand: ATP DNA aptamer (quencher-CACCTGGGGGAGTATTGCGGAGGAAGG + anchor), 100 nM annealed; ATP concentration: 500 uM
Attribute Measured: switch fluorescence ratio

chain_sequence=GGGGGAGGTC recorded_number=0.989
chain_sequence=AATTGTATTA recorded_number=0.973
chain_sequence=TAGATGTTCG recorded_number=0.978
chain_sequence=GAGGGCTAGT recorded_number=0.971
chain_sequence=GAACGGCCGG recorded_number=1
chain_sequence=AATAAGAAGG recorded_number=0.999
chain_sequence=TGTTTATTTG recorded_number=0.965
chain_sequence=GGCAGAATAA recorded_number=1.05
chain_sequence=CCGTGTTGCG recorded_number=1.01
chain_sequence=CGTTTTACCG recorded_number=1.02
chain_sequence=GTATGGTAGG recorded_number=1.03
chain_sequence=AGGGGTGGGT recorded_number=1.04
chain_sequence=GGGGTGCGCG recorded_number=0.968
chain_sequence=GGCGAGTATG recorded_number=0.952
chain_sequence=AAGGGTTAT recorded_number=0.995
chain_sequence=GGGATCGGTT recorded_number=0.982
chain_sequence=TGGGCGAGAG recorded_number=1.02
chain_sequence=AATGGTCGTG recorded_number=0.998
chain_sequence=AGTACATAGT recorded_number=0.99
chain_sequence=TTTATAAGTT recorded_number=0.986
chain_sequence=CTCCTAGTTT recorded_number=1.03
chain_sequence=TTCAGGGGCA recorded_number=1.08
chain_sequence=TTTGTTTGGA recorded_number=1.01
chain_sequence=CCATTGTTTT recorded_number=0.997
chain_sequence=AAAAAATAG recorded_number=0.985
chain_sequence=TGTTTTAGGT recorded_number=1.02
chain_sequence=TGCTCTAGGA recorded_number=1
chain_sequence=TTCGGGTCGG recorded_number=0.991
chain_sequence=TTTGGGTGGA recorded_number=1.02
chain_sequence=CATAATCGCA recorded_number=1.04
chain_sequence=TTATGGCGGT recorded_number=1.06
chain_sequence=CGGCTGGGGA recorded_number=1.03
chain_sequence=TACAAGTTCT recorded_number=0.981
chain_sequence=GGGGACATGC recorded_number=0.982
chain_sequence=TTTTAAAGGT recorded_number=1.01
chain_sequence=TAAGATAGTA recorded_number=0.993
chain_sequence=GCGGGCAATG recorded_number=1.05
chain_sequence=TGGGATAATG recorded_number=1.01
chain_sequence=ATGAGCATCT recorded_number=0.996
chain_sequence=AGTTGGACAG recorded_number=1.02
chain_sequence=AGGTTGGTCG recorded_number=0.974
chain_sequence=CTAGTCTTTT recorded_number=0.982
chain_sequence=TTATAATATG recorded_number=0.985
chain_sequence=GATTATTGGA recorded_number=1.01
chain_sequence=TTGTGGGAAG recorded_number=0.976
chain_sequence=GAAATTAATA recorded_number=0.993
chain_sequence=TCCCGTTTGA recorded_number=1.01
chain_sequence=CATTTTTCTG recorded_number=0.963
chain_sequence=TAGCCGTCTA recorded_number=1.06
chain_sequence=TCTGGGCCAT recorded_number=1.29
chain_sequence=TTCATGGTGG recorded_number=1.01
chain_sequence=TAGATTGATG recorded_number=1.03
chain_sequence=TTTGAAAACG recorded_number=1.02
chain_sequence=AAGTACTTTA recorded_number=1.14
chain_sequence=TGTTGGACGG recorded_number=1.07
chain_sequence=CAAGGGTCGG recorded_number=0.996
chain_sequence=GAGATTTTGT recorded_number=0.998
chain_sequence=ATAGGGGCTA recorded_number=0.988
chain_sequence=TTCGATACTT recorded_number=0.992
chain_sequence=GGGTAACTTT recorded_number=1.08
chain_sequence=CAGCACAGGG recorded_number=1.18
chain_sequence=ATGAGGAGGT recorded_number=0.979
chain_sequence=TTTTTCTTTG recorded_number=1.04
chain_sequence=ATTAGGTGTT recorded_number=1.03
chain_sequence=TGAAACCACT recorded_number=1.1
chain_sequence=GGATTAGGGA recorded_number=1.01
chain_sequence=AATTCTTTTG recorded_number=1.01
chain_sequence=CGGGAGGGTG recorded_number=1.04
chain_sequence=ATCGGCGGGG recorded_number=0.995
chain_sequence=TTAACTCGGA recorded_number=0.996
chain_sequence=TATCTATCCG recorded_number=0.985
chain_sequence=GTAGTAGCGG recorded_number=1.02
chain_sequence=TGTTTAATTC recorded_number=1.3
chain_sequence=TTGAATTTAG recorded_number=0.986
chain_sequence=CGTGTAATGG recorded_number=1.04
chain_sequence=CGGGGTCATG recorded_number=0.991
chain_sequence=TCAAGAAGGT recorded_number=1
chain_sequence=GCCCAAAAGA recorded_number=1.02
chain_sequence=TTAGCCTCTT recorded_number=0.996
chain_sequence=TGGGAAGGCG recorded_number=0.983
chain_sequence=GATGTTTGAG recorded_number=0.991
chain_sequence=TCGTATTCGG recorded_number=0.992
chain_sequence=TATTTTGTTA recorded_number=1.01
chain_sequence=TCTCGTAACT recorded_number=1
chain_sequence=TTTAAAAAGG recorded_number=0.982
chain_sequence=ACAGCGGGGG recorded_number=1.03
